// provenance: patent US12473294B2

- System Tested: wildtype LRRK2 (Homo sapiens, UniProt Q5S007)
- Construct: endogenous in cells; host or cells: HEK293 with HiBit knocked in at the 3' end of the endogenous LRRK2 gene, stably expressing firefly luciferase
- Sequence (Q5S007 whole entry): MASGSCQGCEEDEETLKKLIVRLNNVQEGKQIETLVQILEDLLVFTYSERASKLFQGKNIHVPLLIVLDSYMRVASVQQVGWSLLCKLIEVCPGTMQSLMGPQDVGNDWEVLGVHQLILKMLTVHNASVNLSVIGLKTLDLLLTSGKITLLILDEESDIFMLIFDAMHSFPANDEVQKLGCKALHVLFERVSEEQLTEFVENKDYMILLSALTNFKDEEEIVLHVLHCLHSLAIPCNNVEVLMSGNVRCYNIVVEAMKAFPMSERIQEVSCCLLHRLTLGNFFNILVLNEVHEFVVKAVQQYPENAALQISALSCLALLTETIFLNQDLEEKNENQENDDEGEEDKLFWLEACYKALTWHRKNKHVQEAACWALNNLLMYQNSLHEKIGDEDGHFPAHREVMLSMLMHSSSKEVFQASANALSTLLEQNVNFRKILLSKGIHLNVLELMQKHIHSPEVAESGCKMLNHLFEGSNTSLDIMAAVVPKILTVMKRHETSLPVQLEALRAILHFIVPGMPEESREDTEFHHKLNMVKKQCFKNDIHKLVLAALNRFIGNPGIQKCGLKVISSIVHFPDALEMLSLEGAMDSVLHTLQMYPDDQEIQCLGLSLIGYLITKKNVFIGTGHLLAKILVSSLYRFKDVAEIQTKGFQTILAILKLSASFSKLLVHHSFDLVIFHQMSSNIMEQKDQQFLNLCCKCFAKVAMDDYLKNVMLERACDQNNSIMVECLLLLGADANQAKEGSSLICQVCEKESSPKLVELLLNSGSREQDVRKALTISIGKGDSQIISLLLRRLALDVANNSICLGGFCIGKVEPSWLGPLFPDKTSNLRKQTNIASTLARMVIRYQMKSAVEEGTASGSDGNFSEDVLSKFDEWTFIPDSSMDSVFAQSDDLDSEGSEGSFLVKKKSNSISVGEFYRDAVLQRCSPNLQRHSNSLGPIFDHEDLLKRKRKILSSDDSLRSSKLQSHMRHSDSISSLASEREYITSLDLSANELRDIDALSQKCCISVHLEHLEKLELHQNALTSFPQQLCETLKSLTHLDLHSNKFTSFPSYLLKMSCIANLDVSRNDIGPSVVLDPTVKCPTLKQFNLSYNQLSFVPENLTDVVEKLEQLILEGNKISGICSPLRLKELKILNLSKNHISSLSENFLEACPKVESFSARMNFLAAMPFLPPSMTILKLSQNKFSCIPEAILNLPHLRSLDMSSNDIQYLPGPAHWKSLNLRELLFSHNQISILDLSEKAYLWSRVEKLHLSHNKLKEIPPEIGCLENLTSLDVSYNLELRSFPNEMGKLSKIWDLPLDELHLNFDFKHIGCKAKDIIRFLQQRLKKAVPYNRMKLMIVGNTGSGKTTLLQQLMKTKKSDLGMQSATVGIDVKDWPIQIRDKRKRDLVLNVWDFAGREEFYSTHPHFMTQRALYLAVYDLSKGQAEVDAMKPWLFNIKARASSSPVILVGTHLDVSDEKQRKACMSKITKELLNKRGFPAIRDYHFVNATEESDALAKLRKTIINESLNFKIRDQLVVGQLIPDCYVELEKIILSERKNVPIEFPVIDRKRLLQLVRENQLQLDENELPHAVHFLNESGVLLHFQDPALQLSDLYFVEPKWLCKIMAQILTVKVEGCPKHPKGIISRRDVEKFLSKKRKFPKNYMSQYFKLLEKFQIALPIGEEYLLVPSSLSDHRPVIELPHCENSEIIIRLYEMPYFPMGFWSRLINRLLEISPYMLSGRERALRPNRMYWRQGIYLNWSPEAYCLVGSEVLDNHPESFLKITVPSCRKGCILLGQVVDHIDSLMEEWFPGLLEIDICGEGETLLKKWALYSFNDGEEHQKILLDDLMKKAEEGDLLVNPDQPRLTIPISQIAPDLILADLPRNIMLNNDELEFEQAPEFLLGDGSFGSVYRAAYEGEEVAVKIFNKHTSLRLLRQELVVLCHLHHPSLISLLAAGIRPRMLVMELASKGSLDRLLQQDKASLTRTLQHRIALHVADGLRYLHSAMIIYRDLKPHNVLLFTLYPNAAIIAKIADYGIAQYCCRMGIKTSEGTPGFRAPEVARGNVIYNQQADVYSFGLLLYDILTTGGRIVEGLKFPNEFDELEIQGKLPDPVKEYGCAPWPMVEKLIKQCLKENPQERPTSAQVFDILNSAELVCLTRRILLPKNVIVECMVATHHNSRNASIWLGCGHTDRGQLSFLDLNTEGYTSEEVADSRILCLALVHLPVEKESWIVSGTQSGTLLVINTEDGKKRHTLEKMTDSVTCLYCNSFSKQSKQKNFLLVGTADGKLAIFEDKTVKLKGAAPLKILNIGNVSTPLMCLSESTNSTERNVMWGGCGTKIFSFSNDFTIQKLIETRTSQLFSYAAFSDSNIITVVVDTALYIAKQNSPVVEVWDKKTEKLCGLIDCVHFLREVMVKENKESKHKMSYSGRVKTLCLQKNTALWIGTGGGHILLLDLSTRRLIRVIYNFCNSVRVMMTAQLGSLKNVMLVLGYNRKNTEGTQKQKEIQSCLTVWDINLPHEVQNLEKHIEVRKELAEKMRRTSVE
- Assay Notes: LRRK2 degradation HiBit assay, wildtype LRRK2 tagged with a HiBit tag in HEK293 cells
- Type: cell-based
- Assay Conditions: 24 hours compound incubation, read-out: ** WT Dmax (%)
Listed next: entries and their corresponding Dmax.

Compound	Dmax
CC1=C(C(=O)Nc2ccc3[nH]nc(-c4ccnc(N5CCN(CCCN6CCN(c7ccc8c(c7)C(=O)N(C7CCC(=O)NC7=O)C8=O)CC6)CC5)c4)c3c2)[C@@H](C)n2nnnc2N1C (stereo partly drawn)	50 to 70%
CC1=C(C(=O)Nc2ccc3[nH]nc(-c4ccnc(N5CCN(CCC6CCN(CC7CCN(c8ccc9c(c8)C(=O)N(C8CCC(=O)NC8=O)C9=O)CC7)CC6)CC5)c4)c3c2)[C@@H](C)n2nnnc2N1C (stereo partly drawn)	50 to 70%

Dmax in this record for CC1=C(C(=O)Nc2ccc3[nH]nc(-c4ccnc(N5CCN(CCN6CCN(CC7CCN(c8ccc9c(c8)C(=O)N(C8CCC(=O)NC8=O)C9=O)CC7)CC6)CC5)c4)c3c2)[C@@H](C)n2nnnc2N1C (stereo partly drawn) : ≥ 70%

Dmax in this record for CC1=C(C(=O)Nc2ccc3[nH]nc(-c4ccnc(N5C[C@@H](C)N(CC6CCN(CC7CCN(c8ccc9c(c8)C(=O)N(C8CCC(=O)NC8=O)C9=O)CC7)CC6)[C@@H](C)C5)c4)c3c2)Cn2nnnc2N1C (stereo partly drawn) : 50 to 70%

Dmax in this record for CC1=C(C(=O)Nc2ccc3[nH]nc(-c4ccnc(N5C[C@@H](C)N(CC6CCN(CC7CCN(c8ccc9c(c8)C(=O)N(C8CCC(=O)NC8=O)C9=O)CC7)CC6)[C@@H](C)C5)c4)c3c2)C(C)n2nnnc2N1C (stereo partly drawn) : 50 to 70%

Dmax in this record for CC1=C(C(=O)Nc2ccc3[nH]nc(-c4ccnc(N5CCN(CC6CCN(CC7CCN(c8ccc9c(c8)C(=O)N(C8CCC(=O)NC8=O)C9=O)CC7)CC6)[C@@H](C)C5)c4)c3c2)[C@H](C)n2nnnc2N1C (single isomer, unassigned) : < 50%

Dmax in this record for CC1=C(C(=O)Nc2ccc3[nH]nc(-c4ccnc(N5CCN(CC6CCN(CC7CCN(c8ccc9c(c8)C(=O)N(C8CCC(=O)NC8=O)C9=O)CC7)CC6)[C@@H](C)C5)c4)c3c2)Cn2nnnc2N1C (stereo partly drawn) : 50 to 70%

Dmax in this record for CC1=C(C(=O)Nc2ccc3[nH]nc(-c4ccnc(N5CCN(CC(F)(F)C6CCN(CC7CCN(c8ccc9c(c8)C(=O)N(C8CCC(=O)NC8=O)C9=O)CC7)CC6)CC5)c4)c3c2)[C@@H](C)n2nnnc2N1C (stereo partly drawn) : 50 to 70%

Dmax in this record for CC1=C(C(=O)Nc2ccc3[nH]nc(-c4ccnc(N5CCN(CCN6CCN(CC7CCN(c8ccc9c(c8)C(=O)N(C8CCC(=O)NC8=O)C9=O)CC7)CC6)[C@@H](C)C5)c4)c3c2)C(C)(C)n2nnnc2N1C (stereo partly drawn) : < 50%
